system: 931267-113-T-J1-PDC multicell spheroid viability; assay: Anticancer human tumor 931267-113-T-J1-PDC patient-derived colon adenocarcinoma cell line growth inhibition [PI3K]; conditions: second compound 0.0316 µM; first compound 1 µM; active compounds read low
Hi! Just check whether viability, T/C is below 90%. Below gives true, equal or above gives false.

1) CCCS(=O)(=O)Nc1ccc(F)c(C(=O)c2c[nH]c3ncc(-c4ccc(Cl)cc4)cc23)c1F + COc1c(OCCCN2CCOCC2)ccc2c3n(c(=NC(=O)c4cnc(N)nc4)nc12)CCN3 = false
2) CC1(C)CCC(CN2CCN(c3ccc(C(=O)NS(=O)(=O)c4ccc(NCC5CCOCC5)c([N+](=O)[O-])c4)c(Oc4cnc5[nH]ccc5c4)c3)CC2)=C(c2ccc(Cl)cc2)C1 + COc1c(OCCCN2CCOCC2)ccc2c3n(c(=NC(=O)c4cnc(N)nc4)nc12)CCN3 = true
3) Cn1ncc(Cl)c1-c1cc(C(=O)NC(CN)Cc2cccc(F)c2)sc1Cl (stereo unspecified) + CC(Nc1ncnc2nc[nH]c12)c1cc2cccc(Cl)c2c(=O)n1-c1ccccc1 = true
4) Cn1ncc(Cl)c1-c1cc(C(=O)NC(CN)Cc2cccc(F)c2)sc1Cl (stereo unspecified) + Cc1nc(NC(=O)N2CCCC2C(N)=O)sc1-c1ccnc(C(C)(C)C(F)(F)F)c1 = true
5) CC1(C)CCC(Nc2ncc(C(F)(F)F)c(-c3c[nH]c4c(P(C)(C)=O)c(C#N)ccc34)n2)CN1 (stereo unspecified) + CC(Nc1ccc2c(c1)OCCn1cc(N3C(=O)OCC3C(F)F)nc1-2)C(N)=O = true
6) CCN1CCN(Cc2ccc(Nc3ncc(F)c(-c4cc(F)c5nc(C)n(C(C)C)c5c4)n3)nc2)CC1 + COc1c(OCCCN2CCOCC2)ccc2c3n(c(=NC(=O)c4cnc(N)nc4)nc12)CCN3 = true
7) CC(C)NCC(C(=O)N1CCN(c2ncnc3c2C(C)CC3O)CC1)c1ccc(Cl)cc1 (stereo unspecified) + CC(Nc1ncnc2nc[nH]c12)c1cc2cccc(Cl)c2c(=O)n1-c1ccccc1 = false
8) C=CC(=O)N1CCN(c2nc(=O)n(-c3c(C)ccnc3C(C)C)c3nc(-c4c(O)cccc4F)c(F)cc23)C(C)C1 (stereo unspecified) + CC(Nc1ncnc2nc[nH]c12)c1cc2cccc(Cl)c2c(=O)n1-c1ccccc1 = false

====

system: 931267-113-T-J1-PDC multicell spheroid viability; assay: Anticancer human tumor 931267-113-T-J1-PDC cell line growth inhibition [PI3K]; details: second compound 3.16 µM; first compound 0.1 µM; active compounds read low;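 note: viability read 7 days after compound addition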
PROPERTY LABEL: viability, T/C (%)

1) Cn1nccc1Nc1nccc(-c2ccn(C(CO)c3ccc(Cl)c(F)c3)c(=O)c2)n1 (stereo unspecified) + CC(Nc1ncnc2nc[nH]c12)c1cc2cccc(Cl)c2c(=O)n1-c1ccccc1 = 94.3
2) Cn1ncc(Cl)c1-c1cc(C(=O)NC(CN)Cc2cccc(F)c2)sc1Cl (stereo unspecified) + Cc1nc(NC(=O)N2CCCC2C(N)=O)sc1-c1ccnc(C(C)(C)C(F)(F)F)c1 = 61.7
3) CC(C)n1nc(-c2ccc3oc(N)nc3c2)c2c(N)ncnc21 + CC(Nc1ncnc2nc[nH]c12)c1cc2cccc(Cl)c2c(=O)n1-c1ccccc1 = 52.5
4) C=CC(=O)N1CCN(c2nc(=O)n(-c3c(C)ccnc3C(C)C)c3nc(-c4c(O)cccc4F)c(F)cc23)C(C)C1 (stereo unspecified) + Cc1nc(NC(=O)N2CCCC2C(N)=O)sc1-c1ccnc(C(C)(C)C(F)(F)F)c1 = 71.3
5) CNC(=O)c1ccc(N2C(=S)N(c3ccc(C#N)c(C(F)(F)F)c3)C(=O)C2(C)C)cc1F + CC(Nc1ncnc2nc[nH]c12)c1cc2cccc(Cl)c2c(=O)n1-c1ccccc1 = 98.9
6) CC1(C)CCC(CN2CCN(c3ccc(C(=O)NS(=O)(=O)c4ccc(NCC5CCOCC5)c([N+](=O)[O-])c4)c(Oc4cnc5[nH]ccc5c4)c3)CC2)=C(c2ccc(Cl)cc2)C1 + CC(Nc1ncnc2nc[nH]c12)c1cc2cccc(Cl)c2c(=O)n1-c1ccccc1 = 107
7) CCCS(=O)(=O)Nc1ccc(F)c(C(=O)c2c[nH]c3ncc(-c4ccc(Cl)cc4)cc23)c1F + CC(Nc1ncnc2nc[nH]c12)c1cc2cccc(Cl)c2c(=O)n1-c1ccccc1 = 99.9
8) Cn1ncnc1[C@H]1c2n[nH]c(=O)c3cc(F)cc(c23)N[C@@H]1c1ccc(F)cc1 + CC(Nc1ncnc2nc[nH]c12)c1cc2cccc(Cl)c2c(=O)n1-c1ccccc1 = 93.3
9) CCN1CCN(Cc2ccc(Nc3ncc(F)c(-c4cc(F)c5nc(C)n(C(C)C)c5c4)n3)nc2)CC1 + CC(Nc1ncnc2nc[nH]c12)c1cc2cccc(Cl)c2c(=O)n1-c1ccccc1 = 95.3
10) C=CC(=O)N1CCN(c2nc(=O)n(-c3c(C)ccnc3C(C)C)c3nc(-c4c(O)cccc4F)c(F)cc23)C(C)C1 (stereo unspecified) + CC(Nc1ncnc2nc[nH]c12)c1cc2cccc(Cl)c2c(=O)n1-c1ccccc1 = 101
11) CC(C)n1nc(-c2ccc3oc(N)nc3c2)c2c(N)ncnc21 + Cc1nc(NC(=O)N2CCCC2C(N)=O)sc1-c1ccnc(C(C)(C)C(F)(F)F)c1 = 30.7
